# system under test: human GPR17 short isoform (Homo sapiens (Human), UniProt Q13304)
# Sequence (Q13304 29-367): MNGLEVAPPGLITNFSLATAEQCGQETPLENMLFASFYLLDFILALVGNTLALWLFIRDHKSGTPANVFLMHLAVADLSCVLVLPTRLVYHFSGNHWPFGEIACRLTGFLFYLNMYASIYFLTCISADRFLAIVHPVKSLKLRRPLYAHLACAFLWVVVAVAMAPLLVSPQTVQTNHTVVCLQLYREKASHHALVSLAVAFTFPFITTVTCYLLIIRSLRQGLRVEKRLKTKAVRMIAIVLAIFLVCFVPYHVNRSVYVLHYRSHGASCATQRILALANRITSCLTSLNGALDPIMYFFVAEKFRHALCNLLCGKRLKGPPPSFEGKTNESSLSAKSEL
# protocol summary: GPR17 cAMP assay (hGPR17 cAMP, antagonist mode against EC80 of MDL29,951)
# applied conditions: CHO-K1 cells stably expressing human GPR17 short isoform; EC80 of agonist MDL29,951; forskolin 15 μM
# From the text: GPR17 cAMP Assay Protocol: […] Changes in intracellular cyclic adenosine monophosphate (cAMP) levels were quantified using the Nano-TRF Detection Assay kit (Roche Diagnostics, Cat. No. 05214386001). This assay allows for direct cAMP quantification in a homogeneous solution, cAMP is detected based on time-resolved fluorescence energy transfer (TR-FRET) and competitive binding of ruthenylated cAMP and endogenous cAMP to an anti-cAMP monoclonal antibody labeled with AlexaFluor-700. […]
quantity name: IC50 (nM)

Some entries whose results are on file:
COc1nc(NS(=O)(=O)c2c[nH]c3nc(C)ccc23)nc(OC)c1CC(F)F: 39
COc1nc(NS(=O)(=O)c2csc3nc(Cl)ccc23)nc(OC)c1OC(F)F: 290
COc1nc(NS(=O)(=O)c2c[nH]c3cc(Cl)ccc23)nc(OC)c1OC(F)(F)CO: 128
COc1nc(NS(=O)(=O)c2c[nH]c3c(C(F)F)c(Cl)ccc23)ncc1OCCF: 34
COc1nc(NS(=O)(=O)c2c[nH]c3cc(Cl)ccc23)ncc1CC(F)(F)F: 162

[I] COc1nc(NS(=O)(=O)c2c[nH]c3c(F)c(Cl)ccc23)ncc1CC(F)F
[II] COc1nc(NS(=O)(=O)c2c[nH]c3cc(Cl)ccc23)ncc1C1CC1
[III] COc1nc(NS(=O)(=O)c2c[nH]c3c(Br)c(Cl)ccc23)ncc1OCCF
[IV] COc1nc(NS(=O)(=O)c2c[nH]c3c4c(ccc23)CCN(C)C4=O)ncc1OCCF
query: hey, can you rank those molecules up there by IC50? biggest number first please Give your ranking as a list of the labels in the requested order.
result: II, IV, I, III
(II: 653 nM, IV: 240 nM, I: 34 nM, III: 14 nM)

----------
# system under test: human GPR17 short isoform (Homo sapiens (Human), UniProt Q13304)
# protocol summary: GPR17 cAMP assay (hGPR17 cAMP, antagonist mode against EC80 of MDL29,951)
# applied conditions: CHO-K1 cells stably expressing human GPR17 short isoform; EC80 of agonist MDL29,951; forskolin 15 μM
pIC50: −log10 of the molar value.
quantity name: pIC50

Some entries whose results are on file:
COc1nc(NS(=O)(=O)c2c[nH]c3cc(Cl)ccc23)ncc1OCCF: 7.16
COc1nc(NS(=O)(=O)c2c[nH]c3c(F)c(C(F)F)ccc23)nc(OC)c1OCC(F)F: 7.46
COc1nc(NS(=O)(=O)c2csc3nc(Br)ccc23)ncc1CC(F)F: 7.31
COc1nc(NS(=O)(=O)c2c[nH]c3cc(Cl)ccc23)ncc1SC: 6.92
COc1nc(NS(=O)(=O)c2c[nH]c3c(C)c(Cl)ccc23)ncc1CC(F)F: 7.70

[A] COc1nc(NS(=O)(=O)c2c[nH]c3nc(C)ccc23)nc(OC)c1OCC(F)F
[B] COc1nc(NS(=O)(=O)c2c[nH]c3cc(Cl)ccc23)ncc1OCC#N
[C] COc1nc(NS(=O)(=O)c2c[nH]c3cc(Cl)ccc23)ncc1C
query: hey, can you rank those molecules up there by pIC50? biggest number first please Give your ranking as a list of the labels in the requested order.
result: B, A, C
(B: 7.31, A: 6.93, C: 6.09)

[P] COc1nc(NS(=O)(=O)c2c[nH]c3cc(Cl)ccc23)ncc1OCC(F)F
[Q] COc1nc(NS(=O)(=O)c2c[nH]c3nc(C(F)F)ccc23)ncc1OC(F)(F)CF
[R] COc1nc(NS(=O)(=O)c2c[nH]c3cc(Br)ccc23)nc(OC)c1OC(F)F
[S] COc1nc(NS(=O)(=O)c2c[nH]c3c(F)c(Cl)ccc23)nc(OC)c1OCC#N
query: hey, can you rank those molecules up there by pIC50? biggest number first please Give your ranking as a list of the labels in the requested order.
result: S, R, P, Q
(S: 7.74, R: 7.54, P: 6.73, Q: 6.42)

[1] CCCc1ccc2c(S(=O)(=O)Nc3ncc(CC(F)F)c(OC)n3)c[nH]c2c1
[2] COc1nc(NS(=O)(=O)c2c[nH]c3nc(Cl)ccc23)nc(OC)c1OCC(F)F
query: For the pair 1 and 2 , which entry has the numerically smaller recorded pIC50? Respond using the label that marks the chosen record.
result: 1
(1: 6.45, 2: 7.24)

[a] COc1nc(NS(=O)(=O)c2c[nH]c3c(SC)c(Cl)ccc23)ncc1CC(F)F
[b] COc1nc(NS(=O)(=O)c2c[nH]c3cc(Br)ccc23)ncc1CC(F)F
[c] COc1nc(NS(=O)(=O)c2csc3nc(Br)ccc23)ncc1OCC(F)F
[d] COc1nc(NS(=O)(=O)c2c[nH]c3cc(Cl)ccc23)ncc1OCCCF
[e] COCCOc1nc(NS(=O)(=O)c2c[nH]c3cc(Cl)ccc23)nc(OC)c1Br
query: # rank by pIC50, ascending (min first) Give your ranking as a list of the labels in the requested order.
result: e, d, c, b, a
(e: 5.56, d: 6.32, c: 6.82, b: 7.48, a: 7.80)

[a] COc1nc(NS(=O)(=O)c2c[nH]c3c(Cl)c(Cl)ccc23)ncc1OCCF
[b] COc1nc(NS(=O)(=O)c2c[nH]c3c(F)c(Cl)ccc23)nc(OC)c1OC(F)F
[c] COc1nc(NS(=O)(=O)c2csc3cc(Br)ccc23)ncc1OC(F)F
query: # rank by pIC50, ascending (min first) Give your ranking as a list of the labels in the requested order.
result: c, a, b

[a] CC#Cc1c(OC)nc(NS(=O)(=O)c2c[nH]c3cc(Cl)ccc23)nc1OC
[b] CCOc1cnc(NS(=O)(=O)c2c[nH]c3cc(Cl)ccc23)nc1OC
query: Which of the two gives a bigger number for pIC50: a or b ? Respond using the label that marks the chosen record.
result: a

[1] COc1nc(NS(=O)(=O)c2c[nH]c3cc(F)ccc23)ncc1CC(F)F
[2] COc1nc(NS(=O)(=O)c2c[nH]c3c(OCC#N)c(Cl)ccc23)nc(OC)c1CC(F)F
query: Which of the two gives a bigger number for pIC50: 1 or 2 ? Respond using the label that marks the chosen record.
result: 2

[a] COc1nc(NS(=O)(=O)c2c[nH]c3nc(Cl)ccc23)nc(OC)c1CCC#N
[b] COc1nc(NS(=O)(=O)c2c[nH]c3nc(C(F)F)ccc23)nc(OC)c1CC(F)CF (stereo not shown)
query: Which of the two gives a bigger number for pIC50: a or b ? Respond using the label that marks the chosen record.
result: a
(a: 7.44, b: 6.94)
